Source listed as patent US20060140858A1.

Measurement Notes: Comparison of ^177Lu-IMP-241 and ^111In-IMP-241 pretargeting using hMN-14 × m679 F(ab′)2 bsMAb (24 h bsMAb clearance)
Type: in vivo, nude mice
Experimental Parameters: female, NCr nude, mouse, kidney, iv, total radioactivity, Kidney, 24 hour after peptide; read-out: Percent Injected Dose Per Gram
*1 amine or outer side, *2 acyl side, *3 side chain or, on linkers, in order; H or OH if unused. Where a SMILES comes first, the peptide text is derived from it. Side-chain parts run from the residue outwards. [ ]: non-standard residue; d: D form. The star is where a group is joined. DOTA = O=C(O)CN1CCN(CC(=O)O)CCN(CC(=O)*)CCN(CC(=O)O)CC1; NH(2-(imidazol-4-yl)ethyl) = c1ncc(CCN*)[nH]1; Suc = O=C(CCC(=O)[*:2])[*:1]
Measurement Type: tissue uptake at 24 h (%ID/g)
Dear colleague, please return just the value in %ID/g, with no unit written.

Data request: Complete the entry with tissue uptake at 24 h for NC(=O)[C@H](CCCCNC(=O)CNC(=O)CCC(=O)NCCc1cnc[nH]1)NC(=O)[C@@H](Cc1ccc(O)cc1)NC(=O)[C@H](CCCCNC(=O)CNC(=O)CCC(=O)NCCc1cnc[nH]1)NC(=O)[C@H](Cc1ccccc1)NC(=O)CN1CCN(CC(=O)O)CCN(CC(=O)O)CCN(CC(=O)O)CC1 [^177Lu-IMP-241, metal not drawn] ({DOTA}-FK([Gly-Suc-NH(2-(imidazol-4-yl)ethyl)])[dY]K([Gly-Suc-NH(2-(imidazol-4-yl)ethyl)])-NH2)
Data returned: 0.18
